The reader will find reported melting point values listed item by item below.

Example cases with answers are listed next.
COc1cc(-c2ccccc2C(F)(F)F)c(Cl)cc1C(=O)N1Cc2ccc(C(=O)O)n2Cc2ccccc21 [Example 15]: 220 to 222 °C (dec.)
CCOc1ccccc1-c1cc(OC)c(C(=O)N2Cc3cccn3Cc3ccccc32)cc1Cl [Example 17]: 213 to 215 °C

## Input Find the recorded melting point belonging to O=C(c1ccc(-c2ccccc2)nc1)N1Cc2cccn2Cc2ccccc21 [Example 29] and report it.
## Output 171 to 174 °C

----------
Recorded inhibition at 0.1 µM by entry
Target: human vasopressin V1a receptor subtype (Homo sapiens, UniProt P37288)
Construct: host or cells: CHO cells (pZeoSV vector for the Thibonnier line)
Sequence (P37288 whole entry): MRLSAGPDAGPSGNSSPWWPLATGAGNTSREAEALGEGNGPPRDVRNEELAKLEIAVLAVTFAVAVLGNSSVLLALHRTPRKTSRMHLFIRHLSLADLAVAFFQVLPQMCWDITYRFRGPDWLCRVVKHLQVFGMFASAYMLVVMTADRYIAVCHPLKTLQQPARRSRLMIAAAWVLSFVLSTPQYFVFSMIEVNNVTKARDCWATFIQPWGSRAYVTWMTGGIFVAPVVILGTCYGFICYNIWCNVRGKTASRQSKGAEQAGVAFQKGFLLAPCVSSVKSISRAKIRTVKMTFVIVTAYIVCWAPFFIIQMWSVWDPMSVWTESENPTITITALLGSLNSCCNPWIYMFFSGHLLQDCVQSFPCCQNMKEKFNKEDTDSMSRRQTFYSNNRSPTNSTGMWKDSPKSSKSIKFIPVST
Assay: Vasopressin binding in Chinese Hamster Ovary cell membranes expressing human vasopressin V1a subtype receptors
Details: 100 nM, CHO cell membranes, [3H]Manning ligand, values without parentheses
Write down the numeric answer in % and omit the unit.

Cc1ccccc1-c1ccc(C(=O)N2Cc3ccc(C(=O)N(C)C4CCN(C)C4)n3Cc3ccccc32)cc1 (centres unmarked): 89
COc1ccccc1-c1ccc(C(=O)N2Cc3ccc(C(=O)N[C@@H]4CN5CCC4CC5)n3Cc3ccccc32)cc1C: 6
Cc1cc(C(=O)N2Cc3ccc(C(=O)N4CCN(CCN5CCOCC5)CC4)n3Cc3ccccc32)ccc1-c1ccccc1C(F)(F)F: 10
COc1cc(C(=O)N2Cc3ccc(C(=O)N4CCN(CCN(C)C)CC4)n3Cc3ccccc32)ccc1-c1ccccc1C: 43

## Input Suppose we examine the compound COc1cccc(-c2cc(OC)c(C(=O)N3Cc4ccc(C(=O)N(C)C5CCN(C)C5)n4Cc4ccccc43)cc2Cl)c1 (centres unmarked) ; what inhibition at 0.1 µM value has been reported?
## Output 41

## Input Which inhibition at 0.1 µM value is on record for Cc1ccccc1-c1ccc(C(=O)N2Cc3ccc(C(=O)NCCC4CCCN4C)n3Cc3ccccc32)cc1 (centres unmarked) ?
## Output 29

## Input Look at this compound and give its reported inhibition at 0.1 µM. "COc1ccccc1-c1ccc(C(=O)N2Cc3ccc(C(=O)N(C)CCN(C)C)n3Cc3ccccc32)cc1OC"
## Output 28

## Input Given the compound "Cc1ccccc1-c1ccc(C(=O)N2Cc3ccc(C(=O)N4CCCN(C)CC4)n3Cc3ccccc32)cc1C" , what is its reported inhibition at 0.1 µM?
## Output 57

## Input Value lookup for inhibition at 0.1 µM; key = COc1ccccc1-c1ccc(C(=O)N2Cc3ccc(C(=O)N(C)C4CCN(C)C4)n3Cc3ccccc32)cc1 (centres unmarked)
## Output 81

## Input Endpoint output: inhibition at 0.1 µM of "COc1cc(C(=O)N2Cc3ccc(C(=O)NCCCN(C)C)n3Cc3ccccc32)ccc1-n1c(C)ccc1C" . Value?
## Output -12

## Input Which inhibition at 0.1 µM value belongs to "COc1cccc(-c2ccc(C(=O)N3Cc4ccc(C(=O)NCCCN(C)C)n4Cc4ccccc43)cc2C)c1" ?
## Output 12

## Input Suppose we examine the compound "COc1cc(C(=O)N2Cc3ccc(C(=O)N4CCC(N5CCCCC5)CC4)n3Cc3ccccc32)ccc1-c1ccccc1C" ; what inhibition at 0.1 µM value has been reported?
## Output 42

## Input What measured inhibition at 0.1 µM goes with "C=CCN1CCN(C(=O)c2ccc3n2Cc2ccccc2N(C(=O)c2ccc(-c4ccccc4OC)c(C)c2)C3)CC1" ?
## Output 15

## Input Look up inhibition at 0.1 µM: "COc1ccccc1-c1ccc(C(=O)N2Cc3ccc(C(=O)N(C)CCN(C)C)n3Cc3ccccc32)cc1C"
## Output 44

## Input So what's the measured inhibition at 0.1 µM for this one? "COc1cc(C(=O)N2Cc3ccc(C(=O)N4CCC(N5CCCC5)CC4)n3Cc3ccccc32)ccc1-c1cccc2ccccc12"
## Output -1

## Input Fill in the blank: the reported inhibition at 0.1 µM of "Cc1ccccc1-c1ccc(C(=O)N2Cc3ccc(C(=O)N4CCN(CCN(C)C)CC4)n3Cc3ccccc32)cc1" is ____.
## Output 64

----------
Biological target: human oxytocin receptor (Homo sapiens)
Construct: host or cells: CHO cells (pcDNA3.1 vector)
Sequence (P30559 whole entry): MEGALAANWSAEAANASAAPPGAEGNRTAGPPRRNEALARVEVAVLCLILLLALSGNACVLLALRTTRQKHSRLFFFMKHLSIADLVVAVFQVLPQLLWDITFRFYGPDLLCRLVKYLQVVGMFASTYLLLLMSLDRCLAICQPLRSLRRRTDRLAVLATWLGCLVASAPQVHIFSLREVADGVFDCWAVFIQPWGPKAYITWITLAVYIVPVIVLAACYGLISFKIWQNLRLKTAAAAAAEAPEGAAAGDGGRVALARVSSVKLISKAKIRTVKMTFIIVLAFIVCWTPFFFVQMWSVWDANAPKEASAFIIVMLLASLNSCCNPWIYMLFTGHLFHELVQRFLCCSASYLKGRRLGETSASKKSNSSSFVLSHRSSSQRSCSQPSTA
Assay: Oxytocin binding in Chinese Hamster Ovary cell membranes expressing human oxytocin receptors
Settings: 100 nM, CHO cell membranes, [3H]oxytocin, values without parentheses, read-out: OT % inhibition @ 100% nM
inhibition at 0.1 µM values, listed per item
Kindly provide the numeric value in % only, without the unit symbol.

COc1ccccc1-c1ccc(C(=O)N2Cc3ccc(C(=O)N(C)CCCN(C)C)n3Cc3ccccc32)cc1OC: 87
COc1cccc(-c2ccc(C(=O)N3Cc4ccc(C(=O)N5CCN(C)CC5)n4Cc4ccccc43)cc2OC)c1: 76
COc1ccccc1-c1ccc(C(=O)N2Cc3ccc(C(=O)NCCCN(C)C)n3Cc3ccccc32)cc1: 66
COc1cc(C(=O)N2Cc3ccc(C(=O)N4CCC(N5CCCC5)CC4)n3Cc3ccccc32)ccc1-n1c(C)ccc1C: 32
Cc1ccccc1-c1ccc(C(=O)N2Cc3ccc(C(=O)N4CCC(N5CCCC5)CC4)n3Cc3ccccc32)cc1: -6
COc1cc(C(=O)N2Cc3ccc(C(=O)N4CCN(CCCN(C)C)CC4)n3Cc3ccccc32)ccc1-n1c(C)ccc1C: 34
Cc1cc(C(=O)N2Cc3ccc(C(=O)N4CCC(N5CCCCC5)CC4)n3Cc3ccccc32)ccc1-c1ccccc1C(F)(F)F: 77
COc1cccc(-c2cc(OC)c(C(=O)N3Cc4ccc(C(=O)NCCCn5ccnc5)n4Cc4ccccc43)cc2Cl)c1: 46
COc1cccc(-c2ccc(C(=O)N3Cc4ccc(C(=O)NCCCN(C)C)n4Cc4ccccc43)cc2OC)c1: 50
C=CCN1CCN(C(=O)c2ccc3n2Cc2ccccc2N(C(=O)c2ccc(-c4ccccc4C(F)(F)F)c(C)c2)C3)CC1: 67

## Input Reported inhibition at 0.1 µM, compound "COc1cc(C(=O)N2Cc3ccc(C(=O)N4CCC(N5CCCC5)CC4)n3Cc3ccccc32)ccc1-c1cccc2ccccc12" : ____
## Output 53

## Input Query: inhibition at 0.1 µM; subject: COc1cc(C(=O)N2Cc3ccc(C(=O)NCCC4CCCN4C)n3Cc3ccccc32)ccc1-n1c(C)ccc1C (stereo not shown)
## Output 10

## Input Fill blank: measured inhibition at 0.1 µM of the compound "COc1cc(C(=O)N2Cc3ccc(C(=O)N4CCCN(C)CC4)n3Cc3ccccc32)ccc1-c1ccccc1C" is ____.
## Output 87

## Input Entry "Cc1cc(C(=O)N2Cc3ccc(C(=O)N4CCN(C(=O)OC(C)(C)C)CC4)n3Cc3ccccc32)ccc1-c1ccccc1C(F)(F)F" : reported inhibition at 0.1 µM = ?
## Output 56

## Input Item "COc1cc(C(=O)N2Cc3ccc(C(=O)NCCCn4ccnc4)n3Cc3ccccc32)ccc1-n1c(C)ccc1C" has what recorded inhibition at 0.1 µM?
## Output 16

## Input Requested read-out: inhibition at 0.1 µM. Entry: "COc1cccc(-c2ccc(C(=O)N3Cc4ccc(C(=O)n5ccnc5)n4Cc4ccccc43)cc2C)c1"
## Output 45

## Input Would you kindly share the measured inhibition at 0.1 µM for "O=C(NCCCn1ccnc1)c1ccc2n1Cc1ccccc1N(C(=O)c1ccc(-c3cccc4ccccc34)cc1Cl)C2" ?
## Output 15

## Input Return reported inhibition at 0.1 µM; argument: "COc1cc(-c2ccccc2C)c(Cl)cc1C(=O)N1Cc2ccc(C(=O)N(C)C3CCN(C)CC3)n2Cc2ccccc21"
## Output 98

## Input What value of inhibition at 0.1 µM has been reported for the following compound? "COc1cccc(-c2ccc(C(=O)N3Cc4ccc(C(=O)N(C)CCCN(C)C)n4Cc4ccccc43)cc2OC)c1"
## Output 96

## Input Name the recorded inhibition at 0.1 µM for "COc1ccccc1-c1ccc(C(=O)N2Cc3ccc(C(=O)O)n3Cc3ccccc32)cc1C" .
## Output 32

## Input What value of inhibition at 0.1 µM has been reported for the following compound? "COc1ccccc1-c1ccc(C(=O)N2Cc3ccc(C(=O)N[C@H]4CN5CCC4CC5)n3Cc3ccccc32)cc1OC"
## Output 86

## Input Sample "Cc1cc(C(=O)N2Cc3ccc(C(=O)N(CCCN(C)C)CCCN(C)C)n3Cc3ccccc32)ccc1-c1ccccc1C(F)(F)F" — what was its inhibition at 0.1 µM?
## Output 37

----------
Biological target: human vasopressin V2 receptor subtype (Homo sapiens)
Construct: host or cells: CHO cells (pZeoSV vector)
Sequence (P30518 whole entry): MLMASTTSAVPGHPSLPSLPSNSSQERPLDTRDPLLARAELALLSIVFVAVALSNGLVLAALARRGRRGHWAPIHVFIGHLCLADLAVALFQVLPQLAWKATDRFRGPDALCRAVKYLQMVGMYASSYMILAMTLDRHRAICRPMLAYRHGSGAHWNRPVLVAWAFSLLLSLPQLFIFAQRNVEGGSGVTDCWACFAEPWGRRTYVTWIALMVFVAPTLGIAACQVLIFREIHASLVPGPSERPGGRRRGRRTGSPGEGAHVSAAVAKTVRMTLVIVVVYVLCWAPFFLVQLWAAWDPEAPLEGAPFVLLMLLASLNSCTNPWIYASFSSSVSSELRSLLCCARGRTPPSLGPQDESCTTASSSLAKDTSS
Experiment: Vasopressin binding in Chinese Hamster Ovary cell membranes expressing human vasopressin V2 subtype receptors
Settings: 100 nM, CHO cell membranes, [3H]arginine vasopressin, values without parentheses
Classify as follows. Reported inhibition at 0.1 µM greater than or equal to 20%: T. Reported inhibition at 0.1 µM below: F.

COc1cc(C(=O)N2Cc3ccc(C(=O)N(C)CCCN(C)C)n3Cc3ccccc32)ccc1-c1cccc2ccccc12 [Example 106]: T
COc1ccccc1-c1ccc(C(=O)N2Cc3ccc(C(=O)O)n3Cc3ccccc32)cc1C [Example 9]: T
Cc1ccccc1-c1ccc(C(=O)N2Cc3ccc(C(=O)N(C)CCCN(C)C)n3Cc3ccccc32)cc1C [Example 101]: F

## Input I'd appreciate it if you could say whether COc1ccccc1-c1ccc(C(=O)N2Cc3ccc(C(=O)N(C)C4CCN(C)CC4)n3Cc3ccccc32)cc1 [Example 177] has inhibition at 0.1 µM at least equal to 20%.
## Output F

## Input Could you please find out whether Cc1ccccc1-c1ccc(C(=O)N2Cc3ccc(C(=O)N4CCC(N5CCCCC5)CC4)n3Cc3ccccc32)cc1 [Example 115] has inhibition at 0.1 µM that meets 20% or exceeds it?
## Output F

## Input // inclusive: inhibition at 0.1 µM at least 20%? input: COc1cccc(-c2ccc(C(=O)N3Cc4ccc(C(=O)N(C)CCCN(C)C)n4Cc4ccccc43)cc2C)c1 [Example 102]
## Output F

Cited source: patent US7109193B2
